Data provenance is ChEMBL document CHEMBL4840359.

# Species: Homo sapiens
# METHOD NOTES: Selectivity ratio, Ki for displacement of [3H]UR-MK299 from human neuropeptide Y Y1 receptor in human SK-N-MC cells measured after 90 mins by scintillation counting analysis to Ki for displacement of [3H]UR-KK200 from human neuropeptide Y Y4 receptor expressed in CHO-mtAEQ cells co-expressing Gqi5 measured after 90 mins by scintillation counting analysis
# Format: cell-based
Starred links: 1 amine or outer side, 2 acyl side, 3 side chain; linkers in the order of their positions; H or OH if unused. Residues, ends and D or L forms follow the SMILES beside them. Groups on a side chain read outwards from the residue. *: point of attachment. Suc = O=C(CCC(=O)[*:2])[*:1]; NH(CH2)4NH2 = NCCCCN*; CO = O=C([*:1])[*:2]
MEASURED ENDPOINT: Selectivity ratio

[[record]]
molecule = "N=C(N)NCCC[C@@H]1NC(=O)CCC(=O)NCCCNC(=O)NC(=N)NCCC[C@@H](C(=O)N[C@@H](Cc2c[nH]c3ccccc23)C(=O)N[C@@H](CCCNC(=N)N)C(=O)N[C@@H](Cc2ccc(O)cc2)C(N)=O)NC(=O)[C@H](Cc2ccc(O)cc2)NC1=O (HELM PEPTIDE1{R.Y.[N=C(NCCC[C@H](N[*:1])C(=O)[*:2])N[*:3]].W.R.Y.[am]}|CHEM1{[O=C(CCC(=O)[*:1])NCCCNC(=O)[*:2]]}$PEPTIDE1,CHEM1,1:R1-1:R1|PEPTIDE1,CHEM1,3:R3-1:R2$$$V2.0)"
value_reported = "> 350"

[[record]]
molecule = "CC(C)C[C@H](NC(=O)[C@H](CCCNC(=N)NC(=O)NCCCCN)NC(=O)[C@H](CCCNC(=N)N)NC(=O)CCC(=O)O)C(=O)N[C@@H](CCCNC(=N)N)C(=O)N[C@@H](Cc1ccc(O)cc1)C(N)=O (Suc-RR([CO-NH(CH2)4NH2])LRY-NH2)"
value_reported = "> 1000"

[[record]]
molecule = "CC(C)C[C@H](NC(=O)[C@H](CCCNC(=N)NC(=O)NCCCCN)NC(=O)[C@H](Cc1ccc(O)cc1)NC(=O)[C@H](CCCCN)NC(=O)CCC(=O)O)C(=O)N[C@@H](CCCNC(=N)N)C(=O)N[C@@H](Cc1ccc(O)cc1)C(N)=O (Suc-KYR([CO-NH(CH2)4NH2])LRY-NH2)"
value_reported = "> 1400"

[[record]]
molecule = "N=C(N)NCCC[C@@H]1NC(=O)CCC(=O)NCCCCNC(=O)NC(=N)NCCC[C@@H](C(=O)N[C@@H](Cc2c[nH]c3ccccc23)C(=O)N[C@@H](CCCNC(=N)N)C(=O)N[C@@H](Cc2ccc(O)cc2)C(N)=O)NC(=O)[C@H](Cc2ccc(O)cc2)NC1=O (HELM PEPTIDE1{R.Y.[N=C(NCCC[C@H](N[*:1])C(=O)[*:2])N[*:3]].W.R.Y.[am]}|CHEM1{[O=C(CCC(=O)[*:1])NCCCCNC(=O)[*:2]]}$PEPTIDE1,CHEM1,1:R1-1:R1|PEPTIDE1,CHEM1,3:R3-1:R2$$$V2.0)"
value_reported = "> 1800"

[[record]]
molecule = "CC(C)C[C@H](NC(=O)[C@H](CCCNC(=N)NC(=O)NCCCCN)NC(=O)[C@H](Cc1ccc(O)cc1)NC(=O)[C@H](CCCNC(=N)N)NC(=O)CCC(=O)O)C(=O)N[C@@H](CCCNC(=N)N)C(=O)N[C@@H](Cc1ccc(O)cc1)C(N)=O"
value_reported = "> 7600"

[[record]]
molecule = "CC(C)C[C@H](NC(=O)[C@@H]1CCCNC(=N)NC(=O)NCCCCNC(=O)CCC(=O)N[C@@H](CCCNC(=N)N)C(=O)N[C@@H](Cc2ccc(O)cc2)C(=O)N1)C(=O)N[C@@H](CCCNC(=N)N)C(=O)N[C@@H](Cc1ccc(O)cc1)C(N)=O"
value_reported = "> 60000"

[[record]]
molecule = "CC(C)C[C@H](NC(=O)[C@@H]1CCC(=O)NCC(=O)N[C@H](CCCNC(=N)N)C(=O)N[C@@H](CCCNC(=N)N)C(=O)N1)C(=O)N[C@@H](CCCNC(=N)N)C(=O)N[C@@H](Cc1ccc(O)cc1)C(N)=O"
value_reported = "> 100"

[[record]]
molecule = "CC(C)C[C@H](NC(=O)[C@H](CCCNC(=N)N)NC(=O)[C@@H]1CCC(=O)N[C@@H](CCCNC(=N)N)C(=O)NCC(=O)N[C@@H](Cc2ccc(O)cc2)C(=O)N1)C(=O)N[C@@H](CCCNC(=N)N)C(=O)N[C@@H](Cc1ccc(O)cc1)C(N)=O (HELM PEPTIDE1{R.G.Y.E.R.L.R.Y.[am]}$PEPTIDE1,PEPTIDE1,1:R1-4:R3$$$V2.0)"
value_reported = 300


----------
# SYSTEM: Neuropeptide Y receptor type 4 (Homo sapiens, UniProt P50391)
# Sequence (P50391 whole entry): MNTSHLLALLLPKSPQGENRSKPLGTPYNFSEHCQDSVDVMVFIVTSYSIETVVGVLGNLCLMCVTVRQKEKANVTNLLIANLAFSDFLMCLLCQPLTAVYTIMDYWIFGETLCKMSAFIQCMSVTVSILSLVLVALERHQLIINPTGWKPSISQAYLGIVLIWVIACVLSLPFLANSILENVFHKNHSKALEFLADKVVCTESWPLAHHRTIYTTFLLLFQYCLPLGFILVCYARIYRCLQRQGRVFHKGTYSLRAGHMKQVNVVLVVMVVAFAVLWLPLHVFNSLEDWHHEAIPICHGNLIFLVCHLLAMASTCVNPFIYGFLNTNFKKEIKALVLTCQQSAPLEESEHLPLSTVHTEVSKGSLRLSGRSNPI
# METHOD NOTES: Displacement of [3H]UR-KK200 from human neuropeptide Y Y4 receptor expressed in CHO-mtAEQ cells co-expressing Gqi5 measured after 90 mins by scintillation counting analysis
# Format: cell-based
# ASSAY SETUP: read-out: Ki
Starred links: 1 amine or outer side, 2 acyl side, 3 side chain; linkers in the order of their positions; H or OH if unused. Residues, ends and D or L forms follow the SMILES beside them. Groups on a side chain read outwards from the residue. *: point of attachment. Suc = O=C(CCC(=O)[*:2])[*:1]; NH(CH2)4NH2 = NCCCCN*; CO = O=C([*:1])[*:2]
We begin with a simple list: items and their reported Ki.
MEASURED ENDPOINT: Ki (nM)

[[record]]
compound = "N=C(N)NCCC[C@H](NC(=O)CCC(=O)O)C(=O)N[C@@H](Cc1ccc(O)cc1)C(=O)N[C@@H](CCCNC(=N)NC(=O)NCCCCN)C(=O)N[C@@H](Cc1c[nH]c2ccccc12)C(=O)N[C@@H](CCCNC(=N)N)C(=O)N[C@@H](Cc1ccc(O)cc1)C(N)=O (single isomer, unassigned)"
system = "Neuropeptide Y receptor type 4 (Homo sapiens, UniProt P50391)"
value_reported = 50

[[record]]
compound = "CC(C)C[C@H](NC(=O)[C@@H]1CCCNC(=N)NC(=O)NCCCCNC(=O)CCC(=O)N[C@@H](CCCNC(=N)N)C(=O)N[C@@H](Cc2ccc(O)cc2)C(=O)N1)C(=O)N[C@@H](CCCNC(=N)N)C(=O)N[C@@H](Cc1ccc(O)cc1)C(N)=O"
system = "Neuropeptide Y receptor type 4 (Homo sapiens, UniProt P50391)"
value_reported = 0.048

[[record]]
compound = "CC(C)C[C@H](NC(=O)[C@H](CCCNC(=N)NC(=O)NCCCN)NC(=O)[C@H](Cc1ccc(O)cc1)NC(=O)[C@H](CCCNC(=N)N)NC(=O)CCC(=O)O)C(=O)N[C@@H](CCCNC(=N)N)C(=O)N[C@@H](Cc1ccc(O)cc1)C(N)=O"
system = "Neuropeptide Y receptor type 4 (Homo sapiens, UniProt P50391)"
value_reported = 0.66

[[record]]
compound = "N=C(N)NCCC[C@@H]1NC(=O)CCC(=O)NCCCCNC(=O)NC(=N)NCCC[C@@H](C(=O)N[C@@H](Cc2c[nH]c3ccccc23)C(=O)N[C@@H](CCCNC(=N)N)C(=O)N[C@@H](Cc2ccc(O)cc2)C(N)=O)NC(=O)[C@H](Cc2ccc(O)cc2)NC1=O (HELM PEPTIDE1{R.Y.[N=C(NCCC[C@H](N[*:1])C(=O)[*:2])N[*:3]].W.R.Y.[am]}|CHEM1{[O=C(CCC(=O)[*:1])NCCCCNC(=O)[*:2]]}$PEPTIDE1,CHEM1,1:R1-1:R1|PEPTIDE1,CHEM1,3:R3-1:R2$$$V2.0)"
system = "Neuropeptide Y receptor type 4 (Homo sapiens, UniProt P50391)"
value_reported = 1.6

[[record]]
compound = "CC(C)C[C@H](NC(=O)[C@@H]1CCCNC(=N)NC(=O)NCCCCNC(=O)CCC(=O)N[C@@H](CCCNC(=N)N)C(=O)N[C@@H](Cc2c[nH]c3ccccc23)C(=O)N1)C(=O)N[C@@H](CCCNC(=N)N)C(=O)N[C@@H](Cc1ccc(O)cc1)C(N)=O"
system = "Neuropeptide Y receptor type 4 (Homo sapiens, UniProt P50391)"
value_reported = 0.033

[[record]]
compound = "CC(C)C[C@H](NC(=O)[C@H](CCCNC(=N)N)NC(=O)[C@@H]1CCC(=O)N[C@@H](CCCNC(=N)N)C(=O)NCC(=O)N[C@@H](Cc2ccc(O)cc2)C(=O)N1)C(=O)N[C@@H](CCCNC(=N)N)C(=O)N[C@@H](Cc1ccc(O)cc1)C(N)=O (HELM PEPTIDE1{R.G.Y.E.R.L.R.Y.[am]}$PEPTIDE1,PEPTIDE1,1:R1-4:R3$$$V2.0)"
system = "Neuropeptide Y receptor type 4 (Homo sapiens, UniProt P50391)"
value_reported = 2.5

[[record]]
compound = "CC(C)C[C@H](NC(=O)[C@H](CCCNC(=N)NC(=O)NCCCCN)NC(=O)[C@H](CCCNC(=N)N)NC(=O)CCC(=O)O)C(=O)N[C@@H](CCCNC(=N)N)C(=O)N[C@@H](Cc1ccc(O)cc1)C(N)=O (Suc-RR([CO-NH(CH2)4NH2])LRY-NH2)"
system = "Neuropeptide Y receptor type 4 (Homo sapiens, UniProt P50391)"
value_reported = 10

